Measured cytotoxicity at 70.5 h by item
Experiment: Human HepG2 cell viability assay in 384 well format
Format: toxicity, cell-based
Set-up: dose 125 nL, time 70.5 hour; concentration not given beside the values
Settings: HepG2 cells, read-out: Inhibition

| compound | cytotoxicity at 70.5 h [%] |
| --- | --- |
| CCn1nc(C)c(S(=O)(=O)Nc2cccc(C(=O)O)c2C)c1C | -2.69 |
| Cc1cc(CNc2ccccc2N2CCCCC2)no1 | -24 |
| Cc1cnn(CC2CCCN2C(=O)c2cc(Cl)ccc2F)c1 (configuration not stated) | 28.1 |
| CC(CNC(=O)NCCCc1cc(N)n(-c2ccccc2)n1)N(C)C (configuration not stated) | -8.44 |
| O=C(NCCn1ccnc1)N1CCCC1c1ccc2c(c1)OCCO2 (configuration not stated) | -4.48 |
| CC(C)CCN1C2(CCN(C(=O)N(C)C)C2)c2ccccc2S1(=O)=O (configuration not stated) | -17.2 |
| Cc1noc(C)c1CN1CCCCC1c1nc(-c2ccccc2)no1 (configuration not stated) | -9.69 |
| CCC(CO)NC(=O)c1cc(COc2ccc(OC)cc2Cl)[nH]n1 (configuration not stated) | -10.5 |
| CN(Cc1ccc(N2CCOCC2)cc1)Cc1noc(C(C)(C)C)n1 | 7.66 |
| Cc1cc(C)n(CCCNC(=O)C(C)NC(=O)c2ccccc2Cl)n1 (configuration not stated) | -8.83 |
| CC(C)(C)c1nc(CC(=O)NC2CCN(C3CC3)C2)cs1 (configuration not stated) | -6.08 |
| O=S1(=O)COCCN1Cc1ccc(F)c(F)c1 | -7.08 |

###

Test: Human HepG2 cell viability assay in 384 well format
Format: toxicity, cell-based
Set-up: dose 125 nL, time 70.5 hour; concentration not given beside the values
Conditions: HepG2 cells, read-out: Inhibition

| compound | cytotoxicity at 70.5 h |
| --- | --- |
| Cc1cc(SC(C)(C)C)ccc1NC(=O)CNC(N)=O | -9.26% |
| CCN1CCC(NC(=O)CN2CCc3c(ncn3C3CC3)C2)CC1 | -9.11% |
| C[C@H](O)CNC(=O)c1cnc(-c2ccccc2)nc1O | -4.5% |
| CC(NCc1ccccc1O)c1ccc(-n2ccnc2)cc1 (centres undefined) | 26.4% |
| CC(C)(C)c1cc(=O)[nH]c(-c2ccccc2CN2CCCCCC2)n1 | -3.97% |
| CC1Cc2ccccc2N1Cc1occc1C(=O)O (centres undefined) | -5.89% |
| NCCc1n[nH]c(=O)n1-c1cccc2ccccc12 | -4.93% |
| CC(C)(C)c1n[nH]c(C2CN(C(=O)C3=COCCC3)CCO2)n1 (centres undefined) | -6.48% |
| Nc1ccnc(C(=O)N2CCCC3(CCC(=O)N(C4CCCC4)C3)C2)c1 (centres undefined) | -7.4% |
| CC(Cn1cccn1)NC(=O)NCc1ccc(S(N)(=O)=O)cc1 (centres undefined) | -7.93% |
| CC(OCC(F)(F)F)C(=O)N1CCCCC1 (centres undefined) | 0.611% |
| CC(C)c1cc(C(=O)N2CCN(CC3CC3)[C@@H]3CS(=O)(=O)C[C@@H]32)no1 | -3.21% |
| CCS(=O)(=O)NC[C@]12COC[C@H]1CN(Cc1cccnc1)C2 | 7.34% |
| O=C(CSCC1CC1)N1CCCN(c2ccc(F)cc2)CC1 | -7.69% |
| NC(=O)NC(=O)CCN1CCC(C(=O)c2cc(F)ccc2F)CC1 | -12.1% |
| CN(C)C(=O)CC1CCOc2ccccc21 (centres undefined) | 0.971% |
| Cc1cnn(CC2CCCN2CCCS(=O)(=O)N(C)C)c1 (centres undefined) | 2.72% |
| NCC1Cc2cccc(-c3nccc(N4CCC(O)CC4)n3)c2O1 (centres undefined) | 7.11% |
| CC(C)N(C)Cc1cncc2c1CCN(C(=O)c1ccccc1F)C2 | -1.95% |
| CC(C(=O)NC1CC1)n1nc(-c2cccs2)cc(N)c1=O (centres undefined) | 6.89% |
| Cc1nnc(SCCC(=O)N(C)Cc2c(F)cccc2Cl)[nH]1 | -3.01% |
| O=C(CN1CCN(c2ncnc3c2CCNCC3)CC1)N1CCCCC1 | -5.29% |
| CN(C)c1ncc(-c2cc(C(=O)N3CCCC3)n(CC3CC3)c2)cn1 | -11% |
| COc1ccccc1C(C)CC(=O)N1CCCS1(=O)=O (centres undefined) | -5.37% |

FYI, the data here is from ChEMBL document CHEMBL3507680.
